# Tested on: MTAP-deleted cell line
# ASSAY OVERVIEW: viability assay for the MTAP-deleted cell line
# Format: cell-based
# MEASUREMENT SETUP: Homo sapiens, HAP1, viability assay
Listed next: entries and their corresponding IC50.

Before answering, review these 2 worked examples.
### Prompt State its IC50: C[C@H]1CC[C@H](c2ccc3sc(C4CCN(C)CC4)nc3c2)N(C(=O)C(=O)Nc2cncc3cn[nH]c23)C1 [Compound 94]
### Response < 100 nM

### Prompt Provide one value: measured IC50 of C[C@H]1CC[C@H](c2ccc3sc([C@H]4C[C@H](N(C)C)C4)nc3c2)N(C(=O)C(=O)Nc2cncc3cn[nH]c23)C1 [Compound 64]
### Response < 100 nM

***
### Prompt # return recorded IC50 for entry C[C@H]1CC[C@H](C2(C(F)(F)F)CC2)N(C(=O)C(=O)Nc2cnc(N)c3cn[nH]c23)C1 (racemic) [Compound 226]
### Response 100 to 1000 nM

---

IC50 overview
# Test system: HAP1 MTAP-deleted cell line
# ASSAY OVERVIEW: SDMA in-cell western assay, HAP1 MTAP-deleted
# MEASUREMENT SETUP: Homo sapiens, HAP1, read-out: Hap1 MTAP deleted IC50, SDMA in-cell western assay, HAP1 MTAP-deleted cell line

### Prompt Identify measured IC50 corresponding to Cc1ccc2ccc([C@H]3CC[C@H](C)CN3C(=O)C(=O)Nc3cnc(N)c4cn[nH]c34)cc2n1 (racemic)
### Response < 5 nM

### Prompt For the compound C[C@H]1CC[C@H](c2cccc(F)c2)N(C(=O)C(=O)Nc2cnc(N)c3cn[nH]c23)C1 (racemic) , report IC50.
### Response < 5 nM

Others:
### Prompt Provide only the value of recorded IC50 for CC1OCc2c(NC(=O)C(=O)N3C[C@@H](C)CC[C@@H]3c3ccccc3)cnc(N)c21 (single isomer, unassigned)
### Response > 50 nM

---

# System: MTAP-deleted cell line
# ASSAY OVERVIEW: viability assay for the MTAP-deleted cell line
# Assay type: cell-based
# MEASUREMENT SETUP: Homo sapiens, HAP1, viability assay
pIC50: −log10 of the molar value.
QUANTITY MEASURED: pIC50

### Prompt Identify measured pIC50 corresponding to C[C@H]1CC[C@H](c2ccc3sc([C@H]4CCN(C)C[C@H]4C)nc3c2)N(C(=O)C(=O)Nc2ccn3ccnc3c2)C1 (relative stereo)
### Response > 7.00

### Prompt Identify the reported pIC50 for the following entry. C[C@H]1CC[C@H](c2ccccc2)N(C(=O)C(=O)Nc2cnc(N)c3c2OCC3)C1
### Response 6.00 to 7.00

### Prompt Look up pIC50 of COc1ncc([C@H]2CC[C@H](C)CN2C(=O)C(=O)Nc2cnc(N)c3cn[nH]c23)cc1C (racemic) and report it.
### Response > 7.00

### Prompt Look up pIC50 of C[C@H]1CC[C@H](c2cccc(OCCN(C)C)c2)N(C(=O)C(=O)Nc2cncc3cn[nH]c23)C1 (single isomer, unassigned) and report it.
### Response 6.00 to 7.00

### Prompt Quote pIC50 reported for CC[C@@H]1CC[C@@H](CC)N(C(=O)C(=O)Nc2cnc(N)c3cn[nH]c23)C1 (racemic) please.
### Response > 7.00

Continuing:
### Prompt Using known records, supply pIC50 for C[C@H]1CC[C@H](c2ccc3ncccc3c2)N(C(=O)C(=O)Nc2cnc(N)c3cn[nH]c23)C1
### Response > 7.00

### Prompt Please report the measured pIC50 for C[C@H]1CC[C@H](c2ccc3cn(C4CCN(C)CC4)nc3c2)N(C(=O)C(=O)Nc2cncc3cn[nH]c23)C1
### Response > 7.00

### Prompt Give recorded pIC50. C[C@@H]1CCC[C@H](c2ccccc2)N1C(=O)C(=O)Nc1cnc(N)c2cn[nH]c12 (racemic)
### Response > 7.00

### Prompt Give me measured pIC50, please, for this compound: C[C@H]1CC[C@H](c2ccc3nn(C4CCN(C)CC4)cc3c2)N(C(=O)C(=O)Nc2cncc3c(N)nccc23)C1
### Response 6.00 to 7.00

### Prompt Tell me its pIC50 given Cc1ccc2ccc([C@H]3CC[C@H](C)CN3C(=O)C(=O)Nc3cnc(N)c4cn[nH]c34)cc2n1 (racemic) as the entry.
### Response > 7.00

### Prompt // fetch pIC50 given entry COc1cc([C@H]2CC[C@H](C)CN2C(=O)C(=O)Nc2cnc(N)c3cn[nH]c23)cc(C)n1
### Response > 7.00

Where these numbers come from: patent US20250163048A1
